Numbers sourced from patent US8163909B2.

target: CYP2D6 (Homo sapiens, UniProt P10635); assay: CYP2D6 inhibition assay (bufuralol, pooled human liver microsomes); conditions: 2D6 IC50, CYP enzyme inhibition
Sequence (P10635 whole entry): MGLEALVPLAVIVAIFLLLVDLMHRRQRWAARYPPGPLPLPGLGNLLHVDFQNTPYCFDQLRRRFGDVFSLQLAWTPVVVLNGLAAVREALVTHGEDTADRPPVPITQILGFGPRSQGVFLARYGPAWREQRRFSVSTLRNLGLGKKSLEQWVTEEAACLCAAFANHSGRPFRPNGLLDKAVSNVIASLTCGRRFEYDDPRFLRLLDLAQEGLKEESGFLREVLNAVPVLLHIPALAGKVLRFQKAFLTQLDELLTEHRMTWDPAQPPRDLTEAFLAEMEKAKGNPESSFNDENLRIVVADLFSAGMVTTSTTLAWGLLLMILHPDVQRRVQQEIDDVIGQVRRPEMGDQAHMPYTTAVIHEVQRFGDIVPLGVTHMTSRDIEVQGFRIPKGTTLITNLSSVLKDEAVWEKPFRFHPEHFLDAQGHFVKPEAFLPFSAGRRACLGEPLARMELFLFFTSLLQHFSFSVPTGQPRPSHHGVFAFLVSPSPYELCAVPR
measured property: pIC50
Kindly note that pIC50 refers to -log10 of the concentration in mol/L and answer with the value alone.

COCC(=O)N[C@@H](Cc1cc(F)cc(F)c1)[C@H](O)CN[C@H]1CC2(CCC2)Oc2c(-c3nccs3)cc(CC(C)C)cc21 ... 5.41

Consider COCC(=O)N[C@@H](Cc1cc(F)cc(F)c1)[C@H](O)CN[C@H]1CC2(CCC2)Oc2c(Br)cc(CC(C)(C)C)cc21 . Its measured pIC50 is 4.94

Measured pIC50, CC(=O)N[C@@H](Cc1cc(F)cc(F)c1)[C@H](O)CN[C@H]1CC2(CCC2)Oc2c1cc(CC(C)(C)C)nc2-c1cncs1 : 5.10

The molecule identified as C[C@@H](O)C(=O)N[C@@H](Cc1ccc(F)cc1)[C@H](O)CN[C@H]1CC2(CCC2)Oc2ncc(CC(C)(C)C)cc21 registered its pIC50 at 5.17

* * *

biological target: Beta Secretase enzyme (BACE) (Homo sapiens); assay: In vitro enzymatic BACE FRET (fluorescence resonance energy transfer) assay; type: biochemical; details: BACE enzyme assay; read-out: BACE1 FRET assay (IC50)
Sequence (P56817 46-501): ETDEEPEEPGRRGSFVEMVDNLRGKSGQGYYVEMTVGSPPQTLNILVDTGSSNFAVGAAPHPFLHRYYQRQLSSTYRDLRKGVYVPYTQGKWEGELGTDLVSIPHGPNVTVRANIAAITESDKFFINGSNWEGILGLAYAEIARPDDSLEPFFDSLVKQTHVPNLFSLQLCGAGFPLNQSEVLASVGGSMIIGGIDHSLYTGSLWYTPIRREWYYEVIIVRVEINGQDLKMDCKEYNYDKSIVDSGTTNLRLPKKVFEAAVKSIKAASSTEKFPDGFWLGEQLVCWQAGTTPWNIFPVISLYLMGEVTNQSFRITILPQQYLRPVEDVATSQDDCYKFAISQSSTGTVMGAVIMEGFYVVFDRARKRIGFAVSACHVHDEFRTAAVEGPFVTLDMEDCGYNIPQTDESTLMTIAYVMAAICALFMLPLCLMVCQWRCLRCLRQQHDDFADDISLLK
Reported IC50 values for a set of molecules
Please reply with the bare figure in nM and do not write the unit itself.

Below: 5 molecules and their reported IC50.
CO[C@H](C)C(=O)N[C@@H](Cc1ccc(Cl)c(F)c1)[C@H](O)CN[C@H]1CC2(CCC2)Oc2ncc(CC(C)(C)F)cc21 ... 55.8
COCC(=O)N[C@@H](Cc1ccc2c(c1)OCO2)[C@H](O)CN[C@H]1CC2(CCC2)Oc2c1cc(CC(C)(C)C)nc2N1CCCC1 ... 54.1
CC(=O)N[C@@H](Cc1ccccc1)[C@H](O)CN[C@H]1CC2(CCC2)Oc2ncc(CC(C)(C)CF)cc21 ... 2.32
CO[C@@H](C)C(=O)N[C@@H](Cc1ccc(F)cc1)[C@H](O)CN[C@H]1CC2(CCC2)Oc2c(F)cc(CC(C)(C)C#N)cc21 ... 36.4
CC(C)(C)Cc1cnc2c(c1)[C@@H](NC[C@@H](O)[C@H](Cc1ccc(F)c(OC(F)(F)F)c1)NC(=O)C(F)(F)F)CC1(CCC1)O2 ... 2.83

Pending molecule:
Reported IC50 of COCC(=O)N[C@@H](Cc1ccccc1)[C@H](O)CN[C@H]1CC2(CCC2)Oc2cnc(CC(C)(C)C)cc21 : 22.1

* * *

target: CYP3A4 (CYP3A) (Homo sapiens); experiment: in vitro; conditions: microsomes, pH 7.4
measured property: IC50
I'd appreciate it if you included the unit after the number.

Some entries whose results are on file:
CO[C@H](C)C(=O)N[C@@H](Cc1ccc2c(c1)OCO2)[C@H](O)CN[C@H]1CC2(CCC2)Oc2ncc(CC(F)(F)F)cc21 ... 300 nM
CNc1nc(CC(C)C)cc2c1OC1(CCC1)C[C@@H]2NC[C@@H](O)[C@H](Cc1ccc2c(c1)OCO2)NC(=O)[C@@H](C)OC ... 500 nM
CC(=O)N[C@@H](Cc1cccc(-c2ccncc2)c1)[C@H](O)CN[C@H]1CC2(CCC2)Oc2ccc(CC(C)(C)C)cc21 ... 160 nM
COCC(=O)N[C@@H](Cc1cccc(C#N)c1)[C@H](O)CN[C@H]1CC2(CC(F)(F)C2)Oc2ncc(CC(C)(C)C)cc21 ... 1100 nM

Shift focus to the following entry.
Summary: CO[C@H](C)C(=O)N[C@@H](Cc1cc(F)cc(F)c1)[C@H](O)CN[C@H]1CC2(CCC2)Oc2ncc(CC(C)(C)C#N)cc21 , CYP3A4 (CYP3A) (Homo sapiens), IC50 = 2400 nM

* * *

biological target: CYP3A4 (CYP3A) (Homo sapiens, UniProt P08684); assay: in vitro; conditions: microsomes, pH 7.4;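 note: inhibition of CYP3A-mediated 1-hydroxymidazolam formation after 10 min incubation with NADPH, quantified by HPLC MS relative to metabolite produced without test compound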
Sequence (P08684 2-503): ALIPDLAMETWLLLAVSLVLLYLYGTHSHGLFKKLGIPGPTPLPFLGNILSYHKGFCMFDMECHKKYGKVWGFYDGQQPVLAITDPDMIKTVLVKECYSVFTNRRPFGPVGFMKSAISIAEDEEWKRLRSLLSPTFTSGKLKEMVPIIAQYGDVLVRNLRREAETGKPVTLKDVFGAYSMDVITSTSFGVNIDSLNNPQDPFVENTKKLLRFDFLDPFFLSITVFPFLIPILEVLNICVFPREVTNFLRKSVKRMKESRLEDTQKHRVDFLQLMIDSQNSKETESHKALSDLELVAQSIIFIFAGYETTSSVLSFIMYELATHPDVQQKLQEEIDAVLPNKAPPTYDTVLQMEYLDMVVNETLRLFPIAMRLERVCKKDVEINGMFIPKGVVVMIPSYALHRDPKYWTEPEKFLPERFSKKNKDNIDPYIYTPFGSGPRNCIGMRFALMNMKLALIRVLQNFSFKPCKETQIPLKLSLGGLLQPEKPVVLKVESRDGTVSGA
Collected IC50 values appear next to each entry.
Answer with a number only, understood to be in nM.

Previously resolved entries follow.
CO[C@H](C)C(=O)N[C@@H](Cc1cc(F)cc(-c2nccs2)c1)[C@H](O)CN[C@H]1CC2(CCC2)Oc2ccc(CC(C)C)cc21 ... 300
CO[C@H](C)C(=O)N[C@@H](Cc1cc(F)cc(-c2nccs2)c1)[C@H](O)CN[C@H]1CC2(CCC2)Oc2ncc(CC(C)(C)F)cc21 ... 700
CC(=O)N[C@@H](Cc1cc(Br)c2c(c1)OCO2)[C@H](O)CN[C@H]1CC2(CCC2)Oc2ncc(CC(C)(C)F)cc21 ... 160
C#Cc1cc(F)cc(C[C@H](NC(C)=O)[C@H](O)CN[C@H]2CC3(CCC3)Oc3ncc(CC(C)(C)C)cc32)c1 ... 100
C#Cc1cccc(C[C@H](NC(=O)C(OC)OC)[C@H](O)CN[C@H]2CC3(CCC3)Oc3ncc(CC(C)(C)C)cc32)c1 ... 100

Read the next record carefully.
Record CO[C@H](C)C(=O)N[C@@H](Cc1ccc2c(c1)OCO2)[C@H](O)CN[C@H]1CC(C)(C)Oc2ncc(CC(C)(C)C)cc21 . Reported IC50: 100

* * *

target: UniProtKB P10635; experiment: CYP2D6 inhibition assay (bufuralol, pooled human liver microsomes); conditions: 2D6 IC50 (uM), CYP enzyme inhibition
measured property: log10 IC50 (log10 of the value in µM)
# log10 transformed; quantity=IC50; unit=µM

Cc1nc(CN2CCO[C@H](C(=O)N[C@@H](Cc3ccc(F)cc3)[C@H](O)CN[C@H]3CC4(CCC4)Oc4ncc(CC(C)(C)C)cc43)C2)cs1 ... 0.41
CC(C)(C)Cc1cnc2c(c1)[C@@H](NC[C@@H](O)[C@H](Cc1ccc(F)cc1)NC(=O)[C@@H]1CN(Cc3cncs3)CCO1)CC1(CCC1)O2 ... -0.22
COCC(=O)N[C@@H](Cc1cc(F)cc(Cl)c1)[C@H](O)CN[C@H]1CC2(CCC2)Oc2ncc(CC(C)(F)F)cc21 ... 0.69
CC(C)(C)Cc1cnc2c(c1)[C@@H](NC[C@@H](O)[C@H](Cc1ccc3c(c1)OCO3)NC(=O)C1CCO1)CC1(CCC1)O2 (stereo partly drawn) ... 0.52
COCC(=O)N[C@@H](Cc1cccc(F)c1)[C@H](O)CN[C@H]1CC2(CCC2)Oc2c1cc(CC(C)(C)C)cc2-n1ccnc1 ... 0.28
CO[C@H](C)C(=O)N[C@@H](Cc1ccc2c(c1)OCO2)[C@H](O)CN[C@H]1CC2(CCC2)Oc2ccc(C[C@@H](C)F)cc21 ... 0.00
COCC(=O)N[C@@H](Cc1ccccc1)[C@H](O)CN[C@H]1CC2(CCC2)Oc2c(Br)cc(CC(C)C)cc21 ... 0.85
CCO[C@H](C)C(=O)N[C@@H](Cc1ccc2c(c1)OCO2)[C@H](O)CN[C@H]1CC2(CCC2)Oc2ncc(CC(C)C)cc21 ... 0.36

Field log10 IC50 (system: UniProtKB P10635) for entry CO[C@H](C)C(=O)N[C@@H](Cc1cccc(F)c1)[C@H](O)CN[C@H]1CC2(CCC2)Oc2c(-c3cscn3)cc(CC(C)C)cc21 = 0.88

The reported UniProtKB P10635 log10 IC50 of C#Cc1cnc2c(c1)[C@@H](NC[C@@H](O)[C@H](Cc1cc(F)cc(-c3nccs3)c1)NC(=O)[C@@H](C)OC)CC1(CCC1)O2 is 0.00

Form field log10 IC50 for item C#Cc1cc(F)cc(C[C@H](NC(=O)[C@@H](C)OC)[C@H](O)CN[C@H]2CC3(CCC3)Oc3ncc(CC(C)C)cc32)c1 on UniProtKB P10635: 0.32

* * *

system: Aβ40 in conditioned medium of cells stably expressing Amyloid Precursor Protein (APP); assay: In vitro BACE cell-based assay (Aβ40 in conditioned medium, sandwich ELISA); settings: Homo sapiens, HEK293, HEK cell-based assay IC50; read-out: HEK cell assay;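 note: compounds added as a dilution series, secreted peptide quantified by europium time-resolved fluorescence readout, potency fitted from percent of control versus compound concentration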
Catalogue of molecules with associated IC50
Just the number in nM, nothing appended.

COCC(=O)N[C@@H](Cc1cc(F)cc(-c2nccs2)c1)[C@H](O)CN[C@H]1CC2(CCC2)Oc2ncc(CC(C)(C)F)cc21 ... 9
CO[C@H](C)C(=O)N[C@@H](Cc1cc(F)cc(-c2nccs2)c1)[C@H](O)CN[C@H]1CC2(CCC2)Oc2cnc(CC(C)(C)F)cc21 ... 118

# next molecule below
Record Cc1ccccc1CN1CCO[C@H](C(=O)N[C@@H](Cc2ccc(F)cc2)[C@H](O)CN[C@H]2CC3(CCC3)Oc3ncc(CC(C)(C)C)cc32)C1 , field IC50: 143

* * *

target: Beta Secretase enzyme (BACE) (Homo sapiens); assay: In vitro enzymatic BACE FRET (fluorescence resonance energy transfer) assay; assay type: biochemical; settings: BACE enzyme assay, IC50's in uM; read-out: BACE1 FRET assay;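 note: fluorescence read after 1 h with 50 nM quenched peptide substrate spanning the BACE cleavage site, in pH 4.2 acetate buffer containing 10% DMSO and nonionic detergent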
A collection of compounds and their measured IC50
Answer by giving the amount and then stating its unit.

COCCC(=O)N[C@@H](Cc1cccc(-c2nccs2)c1)[C@H](O)CN[C@H]1CC2(CCC2)Oc2ncc(CC(C)(C)C)cc21 ... 0.009 µM

Record CC(C)(C)Cc1cnc2c(c1)[C@@H](NC[C@@H](O)[C@H](Cc1ccc(F)cc1)NC(=O)[C@@H]1CN(Cc3cscn3)CCO1)CC1(CCC1)O2 , field IC50: 0.047 µM

The compound listed as CO[C@H](C)C(=O)N[C@@H](Cc1cc(F)cc(-c2nccs2)c1)[C@H](O)CN[C@H]1CC2(CCC2)Oc2ncc(Br)cc21 has a reported IC50 of 0.246 µM

The compound listed as COCC(=O)N[C@@H](Cc1cccc(C(N)=O)c1)[C@H](O)CN[C@H]1CC2(CCC2)Oc2ncc(CC(C)(C)F)cc21 has a reported IC50 of 0.013 µM

response.value for COCC(=O)N[C@@H](Cc1cccc(-c2ncc(C)s2)c1)[C@H](O)CN[C@H]1CC2(CCC2)Oc2ncc(CC(C)(C)C)cc21 (field: IC50) = 0.021 µM

Query CC(C)Cc1cnc2c(c1)[C@@H](NC[C@H](O)[C@@H](Cc1cccc(-c3nccs3)c1)NC(=O)[C@H]1CCCO1)CC1(CCC1)O2 yields IC50 of 0.286 µM
